molecular target: α-glucosidase; test: α-glucosidase inhibition assay (no method or enzyme source described)
PARAMETER: pIC50
pIC50 here is simply -log10 of the concentration when that concentration is written in mol/L.

Q: Tell me pIC50 of COc1cc(OC)c2cc(C(=O)c3ccccc3)ccc2c1OC when tested on α-glucosidase.
Ans: 5.16
